Target: α2β1 Na+/K+-ATPase (Rattus norvegicus, UniProt P06686)
Experiment: Na+,K+-ATPase activity assay on homogenates of Sf-9 cells expressing α2β1 isozyme (32Pi release from ATP)
Assay readout: pKi
Scale: negative log10 of molar concentration, which is what pKi denotes.

Record request: pKi value, item C[C@@H]1CC2(NC(=O)CS2)[C@]2(O)O[C@@H]3C[C@]4(CO)C5CC[C@]6(C)[C@@H](C7=CC(=O)OC7)CC[C@]6(O)[C@@H]5CC[C@H]4C[C@H]3O[C@@H]2O1 (stereo partly shown) [Compound 2]
7.82

###

Target: α1β1 Na+/K+-ATPase (Rattus norvegicus)
Construct: made in house; host or cells: Sf-9 insect cells, baculovirus
Experiment: Na+,K+-ATPase activity assay on homogenates of Sf-9 cells expressing α1β1 isozyme (32Pi release from ATP)
Type: biochemical
Settings: Sf-9 expressed α1β1, Table 4A; read-out: inhibition constant (Ki) α1β1
Assay readout: Ki (nM)
Lab book: enter the figure in nM, no units written.

Give its Ki value. Item: C[C@@H]1CC2(NC(=O)CS2)[C@]2(O)O[C@@H]3C[C@]4(CO)C5CC[C@]6(C)[C@@H](C7=CC(=O)OC7)CC[C@]6(O)[C@@H]5CC[C@H]4C[C@H]3O[C@@H]2O1 (stereo partly shown) [Compound 2]
160
